This collection of values is drawn from patent US8309685B2.

Parameter IC50: see the listing below.
# tgt: A156T mutant of the HCV NS3/4A 1b protease enzyme (Hepatitis C virus genotype 1b, UniProt P26663, A1182T)
# Construct: 10× stocks of NS3/4A protease enzyme from Bioenza (Mountain View, Calif.); purchased Bioenza (Mountain View, Calif.)
# method_description: HCV Protease FRET Assay (IC50_APP), A156T mutant
# Type: biochemical
# recorded_conditions: read-out: IC50_APP, HCV A156T; apparent IC50, A156T mutant
quantity_name: IC50

C=C[C@@H]1C[C@]1(NC(=O)[C@@H]1C[C@@H](Oc2cc(-c3ccccc3)nc3cc(OC)ccc23)CN1C(=O)[C@H](CCNC(=O)CCl)NC(=O)OC(C)(C)C)C(=O)NS(=O)(=O)c1ccccc1: 0.1 to 1 µM
C=C[C@@H]1C[C@]1(NC(=O)[C@@H]1C[C@@H](Oc2cc(-c3ccccc3)nc3cc(OC)ccc23)CN1C(=O)[C@H](CNC(=O)CCl)NC(=O)OC(C)(C)C)C(=O)NS(=O)(=O)c1ccccc1: 0.1 to 1 µM
C=C[C@@H]1C[C@]1(NC(=O)[C@@H]1C[C@@H](Oc2cc(-c3ccccc3)nc3cc(OC)ccc23)CN1C(=O)[C@H](CCN(C)C(=O)CCl)NC(=O)OC(C)(C)C)C(=O)NS(=O)(=O)c1ccccc1: 0.01 to 0.1 µM
